Target: GR (cytosol from IM-9 cells) (Homo sapiens)
Sequence (P04150 1-777): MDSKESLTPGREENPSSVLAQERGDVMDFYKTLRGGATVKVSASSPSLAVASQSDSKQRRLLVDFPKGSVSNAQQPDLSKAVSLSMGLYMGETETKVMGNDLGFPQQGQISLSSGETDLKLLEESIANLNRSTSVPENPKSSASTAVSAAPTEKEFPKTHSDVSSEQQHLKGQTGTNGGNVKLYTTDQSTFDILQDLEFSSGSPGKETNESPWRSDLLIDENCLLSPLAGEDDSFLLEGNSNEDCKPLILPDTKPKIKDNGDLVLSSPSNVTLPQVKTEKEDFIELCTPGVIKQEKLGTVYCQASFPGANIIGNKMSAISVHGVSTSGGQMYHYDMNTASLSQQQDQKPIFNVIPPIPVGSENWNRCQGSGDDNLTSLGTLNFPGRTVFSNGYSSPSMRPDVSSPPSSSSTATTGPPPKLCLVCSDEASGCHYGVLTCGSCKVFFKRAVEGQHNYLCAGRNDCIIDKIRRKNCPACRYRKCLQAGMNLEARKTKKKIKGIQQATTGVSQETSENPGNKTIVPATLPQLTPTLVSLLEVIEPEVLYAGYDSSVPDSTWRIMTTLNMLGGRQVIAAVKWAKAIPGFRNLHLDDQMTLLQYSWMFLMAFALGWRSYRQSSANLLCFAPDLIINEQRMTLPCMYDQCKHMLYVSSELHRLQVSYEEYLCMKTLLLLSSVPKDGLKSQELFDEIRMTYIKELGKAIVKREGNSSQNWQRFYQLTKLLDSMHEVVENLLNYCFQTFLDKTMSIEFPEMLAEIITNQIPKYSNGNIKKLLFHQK
pIC50: −log10 of the molar value.
pIC50 values, listed per item

{"Molecule": "CC[C@@]1(O)C(=O)OCc2c1cc1n(c2=O)Cc2c-1nc1cc(F)c(C)c3c1c2[C@@H](N(C)C(=O)COCC1CCN(CCCCCCCN(C)c2ccc([C@H]4C[C@@]5(C)[C@@H](CC[C@]5(OC(C)=O)C(C)=O)[C@@H]5CCC6=CC(=O)CCC6=C54)cc2)CC1)CC3 [Compound 55]", "pIC50": "> 8.00"}
{"Molecule": "CC#C[C@]1(O)CC[C@H]2[C@@H]3CCC4=CC(=O)CCC4=C3[C@@H](c3ccc(N(C)CCCCCCN4CCN(C(=O)Oc5ccc6nc7c(cc6c5CN(C)C)Cn5c-7cc6c(c5=O)COC(=O)[C@]6(O)CC)CC4)cc3)C[C@@]21C [Compound 29]", "pIC50": "> 8.00"}
{"Molecule": "CC[C@@]1(O)C(=O)OCc2c1cc1n(c2=O)Cc2cc3c(CN(C)C)c(OCC4CCN(C(=O)CN(C)c5ccc([C@H]6C[C@@]7(C)[C@@H](CC[C@]7(OC(C)=O)C(C)=O)[C@@H]7CCC8=CC(=O)CCC8=C76)cc5)CC4)ccc3nc2-1 [Compound No. 19]", "pIC50": "> 8.00"}
{"Molecule": "CC[C@@]1(O)C(=O)OCc2c1cc1n(c2=O)Cc2cc3c(CN(C)C)c(OC(=O)N4CCN(CCCCCCCN(C)c5ccc([C@H]6C[C@@]7(C)[C@@H](CC[C@]7(OC(C)=O)C(C)=O)[C@@H]7CCC8=CC(=O)CCC8=C76)cc5)CC4)ccc3nc2-1 [Compound 6]", "pIC50": "> 8.00"}
{"Molecule": "CC[C@@]1(O)C(=O)OCc2c1cc1n(c2=O)Cc2cc3c(CN(C)C)c(OC(=O)N4CCN(CC5CCN(c6ccc(C(=O)N[C@H]7CC[C@H](Oc8ccc(C#N)c(Cl)c8C)CC7)nn6)CC5)CC4)ccc3nc2-1 [Compound 31]", "pIC50": "< 6.00"}
{"Molecule": "CC[C@@]1(O)C(=O)OCc2c1cc1n(c2=O)Cc2c-1nc1cc(F)c(C)c3c1c2[C@@H](NC(=O)COCCCCCCN(C)c1ccc([C@H]2C[C@@]4(C)[C@@H](CC[C@]4(OC(C)=O)C(C)=O)[C@@H]4CCC5=CC(=O)CCC5=C42)cc1)CC3 [Compound No. 47]", "pIC50": "> 8.00"}
{"Molecule": "CC[C@@]1(O)C(=O)OCc2c1cc1n(c2=O)Cc2c-1nc1cc(F)c(C)c3c1c2[C@@H](NC(=O)OCc1ccc(NC(=O)[C@H](CCCNC(N)=O)NC(=O)[C@@H](NCCCCCCN(C)c2ccc([C@H]4C[C@@]5(C)[C@@H](CC[C@]5(OC(C)=O)C(C)=O)[C@@H]5CCC6=CC(=O)CCC6=C54)cc2)C(C)C)cc1)CC3 [Compound 59]", "pIC50": "7.00 to 8.00"}
{"Molecule": "CC[C@@]1(O)C(=O)OCc2c1cc1n(c2=O)Cc2cc3c(CN4CCN(C(=O)C5CCN(c6ccc(C(=O)N[C@H]7CC[C@H](Oc8ccc(C#N)c(Cl)c8C)CC7)nn6)CC5)CC4)c(O)ccc3nc2-1 [Compound 25]", "pIC50": "< 6.00"}

* * *

Molecular target: full-length androgen receptor (HEK293 cells stably expressing) (Homo sapiens, UniProt P10275)
Sequence (P10275 whole entry): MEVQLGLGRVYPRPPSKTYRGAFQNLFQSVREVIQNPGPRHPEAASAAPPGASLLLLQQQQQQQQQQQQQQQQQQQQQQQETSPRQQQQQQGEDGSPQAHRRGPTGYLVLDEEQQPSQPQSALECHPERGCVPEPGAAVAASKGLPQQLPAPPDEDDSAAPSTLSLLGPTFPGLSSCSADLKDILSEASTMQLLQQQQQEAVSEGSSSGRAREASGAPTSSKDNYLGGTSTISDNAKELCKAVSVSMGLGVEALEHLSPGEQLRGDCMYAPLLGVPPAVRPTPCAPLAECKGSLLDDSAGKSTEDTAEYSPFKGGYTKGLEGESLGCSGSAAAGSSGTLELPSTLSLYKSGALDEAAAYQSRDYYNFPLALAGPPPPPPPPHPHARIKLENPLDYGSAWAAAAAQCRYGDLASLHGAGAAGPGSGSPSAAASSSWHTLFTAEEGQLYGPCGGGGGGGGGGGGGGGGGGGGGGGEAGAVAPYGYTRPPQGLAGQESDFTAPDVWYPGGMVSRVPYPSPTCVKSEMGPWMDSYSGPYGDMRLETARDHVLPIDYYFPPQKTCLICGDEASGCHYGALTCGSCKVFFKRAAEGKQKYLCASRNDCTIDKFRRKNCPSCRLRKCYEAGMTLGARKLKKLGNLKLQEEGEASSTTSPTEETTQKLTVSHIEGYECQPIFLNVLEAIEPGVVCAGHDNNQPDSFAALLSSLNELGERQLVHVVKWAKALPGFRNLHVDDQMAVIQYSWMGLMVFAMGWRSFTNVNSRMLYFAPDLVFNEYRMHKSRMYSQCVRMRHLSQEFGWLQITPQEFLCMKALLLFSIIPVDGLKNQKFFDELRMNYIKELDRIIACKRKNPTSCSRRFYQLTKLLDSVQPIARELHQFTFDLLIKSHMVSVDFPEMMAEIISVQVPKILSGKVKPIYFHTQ
Assay: AR antagonism assay (luciferase reporter)
Where a name gives a salt, the structure may show the parent alone.
IC50 values, listed per item
Experimental endpoint: IC50

{"Compound": "CC[C@@]1(O)C(=O)OCc2c1cc1n(c2=O)Cc2cc3c(CN4CCN(C(=O)OCCCCN(C)c5ccc([C@H]6C[C@@]7(C)[C@@H](CC[C@]7(OC(C)=O)C(C)=O)[C@@H]7CCC8=CC(=O)CCC8=C76)cc5)CC4)c(O)ccc3nc2-1", "Result": "101 to 1000 nM"}
{"Compound": "CC[C@@]1(O)C(=O)OCc2c1cc1n(c2=O)Cc2cc3c(CN4CCN(CC5CCN(c6ccc(C(=O)N[C@H]7CC[C@H](N(C)c8ccc(C#N)c(Cl)c8)CC7)nn6)CC5)CC4)c(OC)ccc3nc2-1 [Compound 40, formic acid salt]", "Result": "> 1000 nM"}
{"Compound": "CC[C@@]1(O)C(=O)OCc2c1cc1n(c2=O)Cc2cc3c(CN4CCN(C(=O)C5CCN(c6ccc(C(=O)N[C@H]7CC[C@H](Oc8ccc(C#N)c(Cl)c8C)CC7)nn6)CC5)CC4)c(O)ccc3nc2-1", "Result": "> 1000 nM"}
{"Compound": "CC[C@@]1(O)C(=O)OCc2c1cc1n(c2=O)Cc2cc3c(CN4CCN(C(=O)CCCCCC5CCN(c6ccc(C(=O)N[C@H]7CC[C@H](N(C)c8ccc(C#N)c(Cl)c8)CC7)nn6)CC5)CC4)cccc3nc2-1", "Result": "> 1000 nM"}

* * *

Biological target: GR (cytosol from IM-9 cells) (Homo sapiens)
Sequence (P04150 1-777): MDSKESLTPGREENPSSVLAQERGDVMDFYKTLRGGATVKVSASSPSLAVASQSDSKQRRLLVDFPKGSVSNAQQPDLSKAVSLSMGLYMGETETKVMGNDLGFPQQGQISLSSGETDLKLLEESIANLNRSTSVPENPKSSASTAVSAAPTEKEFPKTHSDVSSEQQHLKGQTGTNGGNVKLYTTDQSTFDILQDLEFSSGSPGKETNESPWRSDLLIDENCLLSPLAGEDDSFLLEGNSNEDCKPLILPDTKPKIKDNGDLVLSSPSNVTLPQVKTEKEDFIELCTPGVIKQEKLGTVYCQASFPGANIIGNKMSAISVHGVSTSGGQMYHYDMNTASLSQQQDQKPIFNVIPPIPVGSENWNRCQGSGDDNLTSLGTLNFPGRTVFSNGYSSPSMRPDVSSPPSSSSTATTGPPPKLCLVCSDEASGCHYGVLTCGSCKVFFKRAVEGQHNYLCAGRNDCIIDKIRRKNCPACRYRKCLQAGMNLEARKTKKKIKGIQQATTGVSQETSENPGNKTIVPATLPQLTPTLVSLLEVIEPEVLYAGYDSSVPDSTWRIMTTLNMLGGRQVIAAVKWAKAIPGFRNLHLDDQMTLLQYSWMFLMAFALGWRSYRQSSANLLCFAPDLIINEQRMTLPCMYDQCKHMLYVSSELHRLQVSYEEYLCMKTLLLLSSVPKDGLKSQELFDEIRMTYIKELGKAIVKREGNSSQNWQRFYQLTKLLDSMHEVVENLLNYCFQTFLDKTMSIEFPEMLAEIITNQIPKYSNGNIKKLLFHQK
pIC50: −log10 of the molar value. Numbered stars: 1 amine (or outer) side, 2 acyl side, 3 side chain; on linkers, the order of the positions; unused ones are H or OH. Square brackets hold non-standard residues; d marks the D form. Peptide text beside a SMILES is read from it. * marks the point of attachment. X1 = CC(=O)O[C@]1(C(C)=O)CC[C@H]2[C@@H]3CCC4=CC(=O)CCC4=C3[C@@H](c3ccc(*)cc3)C[C@@]21C; Exatecan = CC[C@@]1(O)C(=O)OCc2c1cc1n(c2=O)Cc2c-1nc1cc(F)c(C)c3c1c2[C@@H](N*)CC3; NHCH2OCH2CO = O=C(COCN[*:1])[*:2]; Sar = CNCC(=O)O
Experimental endpoint: pIC50

{"Compound": "CC[C@@]1(O)C(=O)OCc2c1cc1n(c2=O)Cc2cc3c(CN(C)C)c(OC(=O)N4CCN(CCCCCCCCN(C)c5ccc([C@H]6C[C@@]7(C)[C@@H](CC[C@]7(OC(C)=O)C(C)=O)[C@@H]7CCC8=CC(=O)CCC8=C76)cc5)CC4)ccc3nc2-1", "Experimental endpoint": "pIC50", "Result": "> 8.00"}
{"Compound": "CC[C@@]1(OC(=O)N2CCN(CC3CCN(c4ccc(C(=O)N[C@H]5CC[C@H](Oc6ccc(C#N)c(Cl)c6C)CC5)nn4)CC3)CC2)C(=O)OCc2c1cc1n(c2=O)Cc2cc3cc(OC)ccc3nc2-1", "Experimental endpoint": "pIC50", "Result": "< 6.00"}
{"Compound": "CC[C@@]1(O)C(=O)OCc2c1cc1n(c2=O)Cc2cc3c(CN4CCN(C(=O)C5CCN(c6ccc(C(=O)N[C@H]7CC[C@H](Oc8ccc(C#N)c(Cl)c8C)CC7)nn6)CC5)CC4)c(OC(=O)N4C[C@H](C)N(C)C[C@H]4C)ccc3nc2-1", "Experimental endpoint": "pIC50", "Result": "< 6.00"}
{"Compound": "CC[C@@]1(O)C(=O)OCc2c1cc1n(c2=O)Cc2cc3c(CN(C)C)c(OC(=O)N(C)Cc4ccc(NC(=O)[C@H](CCCNC(N)=O)NC(=O)[C@@H](NCCCCCCN(C)c5ccc([C@H]6C[C@@]7(C)[C@@H](CC[C@]7(OC(C)=O)C(C)=O)[C@@H]7CCC8=CC(=O)CCC8=C76)cc5)C(C)C)cc4)ccc3nc2-1", "Experimental endpoint": "pIC50", "Result": "> 8.00"}
{"Compound": "CC[C@@]1(O)C(=O)OCc2c1cc1n(c2=O)Cc2c-1nc1cc(F)c(C)c3c1c2[C@@H](NC(=O)COCNC(=O)CNC(=O)[C@H](Cc1ccccc1)NC(=O)CNC(=O)CN(C)c1ccc([C@H]2C[C@@]4(C)[C@@H](CC[C@]4(OC(C)=O)C(C)=O)[C@@H]4CCC5=CC(=O)CCC5=C42)cc1)CC3 [Compound 34] (X1-[Sar]GFG[NHCH2OCH2CO]-Exatecan)", "Experimental endpoint": "pIC50", "Result": "> 8.00"}
{"Compound": "CCCCCCC(=O)O[C@]1(CC)C(=O)OCc2c1cc1n(c2=O)Cc2cc3c(CN(C)C)c(OC(=O)N4CCN(CCCCCCN(C)c5ccc([C@H]6C[C@@]7(C)[C@@H](CC[C@]7(OC(C)=O)C(C)=O)[C@@H]7CCC8=CC(=O)CCC8=C76)cc5)CC4)ccc3nc2-1", "Experimental endpoint": "pIC50", "Result": "> 8.00"}
{"Compound": "CC[C@@]1(O)C(=O)OCc2c1cc1n(c2=O)Cc2cc3c(CN4CCN(CC5CCN(c6ccc(C(=O)N[C@H]7CC[C@H](Oc8ccc(C#N)c(Cl)c8C)CC7)nn6)CC5)CC4)c(O)ccc3nc2-1", "Experimental endpoint": "pIC50", "Result": "< 6.00"}
{"Compound": "CC[C@@]1(O)C(=O)OCc2c1cc1n(c2=O)Cc2cc3c(CN4CCN(C)CC4)c(OC(=O)N4CCN(CCCCCCN(C)c5ccc([C@H]6C[C@@]7(C)[C@@H](CC[C@]7(OC(C)=O)C(C)=O)[C@@H]7CCC8=CC(=O)CCC8=C76)cc5)CC4)ccc3nc2-1", "Experimental endpoint": "pIC50", "Result": "> 8.00"}
